Entries annotated with measured hCRHR1 Luciferase Reporter Assay IC50
Molecular target: T1, corticotropin-releasing hormone (CRH) peptide (human and mouse (same sequence), not fully specified)
T1 peptide: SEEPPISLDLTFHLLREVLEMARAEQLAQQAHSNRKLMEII
Experiment: cell-based or functional assay
reported.metric: hCRHR1 Luciferase Reporter Assay IC50 (nM)

PR006146 (antibody, human IgG1, kappa, V domains shown, PTM-removal variant of PR004290) VH: EVQLVESGGVLVQPGGSLRLSCAASGFTFSSYWMTWVRQAPGKGLEWVANIKQDASEKYYVDSVKGRFTISRDNAKNSLFLQMNSLRAEDTAVYYCARTLIFDYWGQGTLVTVSS VL: DIVMTQSPLSLPVTPGEPASISCRSSQSLLHSTGYDSLEWYLQKPGQSPQLLIYLGSNRASGVPDRFSGSGSGTDFTLKISRVEAEDVGIYYCMQTLQTPITFGQGTRLEIKR = 4.89
PR006151 (antibody, human IgG1, kappa, V domains shown, PTM-removal variant of PR004290) VH: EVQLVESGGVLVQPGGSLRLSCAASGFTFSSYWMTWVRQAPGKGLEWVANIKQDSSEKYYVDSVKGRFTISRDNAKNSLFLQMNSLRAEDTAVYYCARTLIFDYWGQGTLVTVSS VL: DIVMTQSPLSLPVTPGEPASISCRSSQSLLHSTGYHSLEWYLQKPGQSPQLLIYLGSNRASGVPDRFSGSGSGTDFTLKISRVEAEDVGIYYCMQTLQTPITFGQGTRLEIKR = 13.6
PR006148 (antibody, human IgG1, kappa, V domains shown, PTM-removal variant of PR004290) VH: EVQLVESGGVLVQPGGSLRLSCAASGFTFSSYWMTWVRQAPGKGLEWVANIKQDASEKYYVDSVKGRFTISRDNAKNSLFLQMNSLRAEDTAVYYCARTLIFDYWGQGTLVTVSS VL: DIVMTQSPLSLPVTPGEPASISCRSSQSLLHSTGYNPLEWYLQKPGQSPQLLIYLGSNRASGVPDRFSGSGSGTDFTLKISRVEAEDVGIYYCMQTLQTPITFGQGTRLEIKR = 2.5
PR006142 (antibody, human IgG1, kappa, V domains shown, PTM-removal variant of PR004290) VH: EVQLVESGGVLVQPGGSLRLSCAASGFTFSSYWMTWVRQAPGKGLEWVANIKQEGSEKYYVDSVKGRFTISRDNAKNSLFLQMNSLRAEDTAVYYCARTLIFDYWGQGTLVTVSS VL: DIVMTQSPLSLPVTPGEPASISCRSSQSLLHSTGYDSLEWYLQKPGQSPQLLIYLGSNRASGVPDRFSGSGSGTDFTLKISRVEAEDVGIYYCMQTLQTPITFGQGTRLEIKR = 4.4
PR006150 (antibody, human IgG1, kappa, V domains shown, PTM-removal variant of PR004290) VH: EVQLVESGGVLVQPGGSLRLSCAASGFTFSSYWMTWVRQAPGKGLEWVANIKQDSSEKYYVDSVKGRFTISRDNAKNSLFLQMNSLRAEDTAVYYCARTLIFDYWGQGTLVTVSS VL: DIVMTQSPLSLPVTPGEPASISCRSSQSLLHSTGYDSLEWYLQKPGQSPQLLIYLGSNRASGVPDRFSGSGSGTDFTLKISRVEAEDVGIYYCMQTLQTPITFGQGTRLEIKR = 5.88

Values compiled from patent US20260042834A1.
